Attribution: the supplement of paper PMC12494721

For each of the compounds below, state its growth.
Test system: Clostridium sporogenes DSM 1664
Assay: growth (OD595) fold change vs plate DMSO controls (fold change (ratio)); higher = more growth
Conditions: 20 µM; incubation time: 27 h, anaerobic, 37 °C
Number only, please.

What value of growth has been recorded for this entry: C#CCOc1ccc(CCNC(=O)C(OCC#C)c2ccc(Cl)cc2)cc1OC (stereo not drawn)
1

Same again, this time with `Oc1ccccc1-c1ccccc1`
1

Let us now turn to Cc1cccc(C)c1NC(=O)CN1CCCC1=O [Nefiracetam]
1.01

* * *

Tested on: Escherichia coli IAI1
Test: fold change of Putrescine concentration vs plate DMSO controls (fold change (ratio)); higher = more amine produced, active = hit call of the paper (significant change in both replicates, either direction)
Conditions: 20 µM; incubation time: 27 h, anaerobic, 37 °C
Provide the reported fold change of Putrescine concentration of each item.
Give the figure only, with no unit attached.

I would be grateful if you could share the reported fold change of Putrescine concentration for O=C(O)C(F)(F)C(F)(F)C(F)(F)C(F)(F)C(F)(F)C(F)(F)C(F)(F)C(F)(F)C(F)(F)F [PFDeA (Perfluorodecanoic acid)] .
1.02

Next entry: `CCOc1ccc(C(C)(C)COCc2cccc(Oc3ccccc3)c2)cc1`
1.01

Same thing, different compound: `COc1ncc(F)c2nc(S(=O)(=O)Nc3c(F)cccc3F)nn12`
1.01

Then NC(=O)C[S+]([O-])C(c1ccccc1)c1ccccc1 (stereo not given) [Modafinil] ?
1.01

C=CC[C@]1(O)CC[C@H]2[C@@H]3CCC4=CCCC[C@@H]4[C@H]3CC[C@@]21C [Allylestrenol] ?
0.977

* * *

Could you please report measured fold change of Putrescine concentration for the items listed next?
Test system: Escherichia coli IAI1
Experiment: fold change of Putrescine concentration vs plate DMSO controls (fold change (ratio)); higher = more amine produced, active = hit call of the paper (significant change in both replicates, either direction)
Conditions: 20 µM; incubation time: 27 h, anaerobic, 37 °C
Counter-ions that a name gives are not always drawn.
Lab note: jot down the number only; don't add units.

Data request, read-out fold change of Putrescine concentration, for `Nc1c(Cl)c(F)nc(OCC(=O)O)c1Cl`
0.986

What about this compound? Nc1nc(N)nc(N)n1 [Melamine]
0.988

Okay, and `CC(C)OC(=O)Nc1cccc(Cl)c1` ?
0.987

Let us now turn to `O=C(Nc1ccccc1-c1ccc(Cl)cc1)c1cccnc1Cl`
1

Same read-out for COc1ccc(CCN2CCC(Nc3nc4ccccc4n3Cc3ccc(F)cc3)CC2)cc1 [Astemizole] ?
1.01

And `CCC(C)(C)C(=O)OC1=C(c2ccc(Cl)cc2Cl)C(=O)OC12CCCCC2` ?
1.02

Another compound: CC1(C)[C@H](/C=C(\Cl)C(F)(F)F)[C@@H]1C(=O)OC(C#N)c1cccc(Oc2ccccc2)c1 (stereo partly specified)
0.976

Same read-out for CC(=O)[C@H]1CC[C@H]2[C@@H]3CC[C@H]4C[C@H](O)CC[C@]4(C)[C@H]3C(=O)C[C@]12C [Alfaxalone] ?
0.994

Would you mind doing CC(COc1ccc(Oc2ccccc2)cc1)Oc1ccccn1 (stereo unspecified) as well?
1.01

// query: CC(C)CC(N(C)C)C1(c2ccc(Cl)cc2)CCC1 (stereo unspecified) [Sibutramine hydrochloride]
1.01

// repeat for `CC(C)N(C)S(=O)(=O)NC(=O)c1cc(-n2c(=O)cc(C(F)(F)F)n(C)c2=O)c(F)cc1Cl` and report
0.983

* * *

Tested on: Klebsiella aerogenes DSM 30053
Assay: fold change of Putrescine concentration vs plate DMSO controls (fold change (ratio)); higher = more amine produced, active = hit call of the paper (significant change in both replicates, either direction);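 for the amine columns active = adjusted P below 0.05 in both replicates with a change the same way and a mean fold change under 0.8 or over 1.25; inactive = the rest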
Conditions: 20 µM; incubation time: 27 h, anaerobic, 37 °C
Where a name gives a salt, the structure may show the parent alone.
Log the outcome using a class from t = active, f = inactive

Recorded test call requested for `COC(=O)NC(=S)Nc1ccccc1NC(=S)NC(=O)OC`
f

What do you get for CCN(CC)C(C)C(=O)c1ccccc1 (stereo unspecified) [Amfepramone hydrochloride] ?
f

Please answer likewise for `O=C(O)c1nc(Cl)ccc1Cl`
f

Next compound up: CC(=O)[C@H]1CC[C@H]2[C@@H]3CC[C@H]4C[C@H](O)CC[C@]4(C)[C@H]3C(=O)C[C@]12C [Alfaxalone]
f

Can you check `COc1cc(OC)nc(NC(=O)NS(=O)(=O)c2ncccc2C(=O)N(C)C)n1` next?
f

CCn1cc(C(=O)O)c(=O)c2cc3c(cc21)OCO3 [Oxolinic acid] ?
f

What do we get for c1cc2ccc3cccc4ccc(c1)c2c34 [Pyrene] ?
f

What about c1ccc2c(c1)ccc1c3ccccc3sc21 [Benzo[b]naphtho[2,1-d]thiophene] ?
f

Same question for CN(C)[C@@H]1C(=O)C(C(N)=O)=C(O)[C@@]2(O)C(=O)C3=C(O)c4c(O)cccc4[C@@](C)(O)[C@H]3[C@H](O)[C@@H]12 [Oxytetracycline dihydrate] please.
t

Let us now turn to C[C@]12CCC(=O)C=C1CC[C@@H]1[C@@H]2C(=O)C[C@]2(C)C(=O)CC[C@@H]12 [Adrenosterone]
f

`Oc1ccccc1-c1ccccc1` ?
f

Next compound: `Cc1nc(N(C)C)nc(OC(=O)N(C)C)c1C`
f

And for ClC1C(Cl)C(Cl)C(Cl)C(Cl)C1Cl (stereo unspecified) ?
f

Subsequent entry: `CN1COCN(Cc2cnc(Cl)s2)/C1=N\[N+](=O)[O-]`
f

Another compound to look at: COc1ccccc1N [o-Anisidine]
f

Same question, O=c1[nH]c2ccccc2n1CCCN1CCC(n2c(=O)[nH]c3cc(Cl)ccc32)CC1 [Domperidone] this time
f

* * *

Record form. Attribute: fold change of Putrescine concentration. Fill in for each entry.
Tested on: Klebsiella aerogenes DSM 30053
Experiment: fold change of Putrescine concentration vs plate DMSO controls (fold change (ratio)); higher = more amine produced, active = hit call of the paper (significant change in both replicates, either direction)
Conditions: 20 µM; incubation time: 27 h, anaerobic, 37 °C
Counter-ions that a name gives are not always drawn.

GET /values?readout=fold change of Putrescine concentration&item= CCNC1(c2cccs2)CCCCC1=O (stereo not given) [Tiletamine hydrochloride]
1.01 (inactive)

Then what about the molecule CCCCN(CCCC)N=O [DBNA (N-nitrosodibutylamine)] ?
1.02 (inactive)

Now the same for O=C(O)C(F)(F)C(F)(F)C(F)(F)C(F)(F)C(F)(F)C(F)(F)C(F)(F)F [PFOA (Perfluorooctanoic acid)]
1 (inactive)

# repeat for Clc1ccc(C(OCCN2CCCCC2)c2ccccc2)cc1 (stereo not given) [Cloperastine hydrochloride]
0.988 (inactive)

What would you report for CC(C)C[C@H]1C(=O)N2CCC[C@H]2[C@]2(O)O[C@](NC(=O)[C@@H]3C=C4c5cccc6[nH]c(Br)c(c56)C[C@H]4N(C)C3)(C(C)C)C(=O)N12 [Bromocryptine mesylate] ?
0.98 (inactive)

Let us now turn to `Cc1cc(C)nc(Nc2ccccc2)n1`
1.02 (inactive)

Query CC1COC(Cn2cncn2)(c2ccc(Oc3ccc(Cl)cc3)cc2Cl)O1 (stereo not given) next
0.996 (inactive)

One more molecule: `N#Cc1c[nH]cc1-c1cccc2c1OC(F)(F)O2`
0.977 (inactive)

Thanks! And `COc1ncc(F)c2nc(S(=O)(=O)Nc3c(F)cccc3F)nn12` ?
0.997 (inactive)

For `COCC(=O)N(c1c(C)cccc1C)[C@H](C)C(=O)OC` then?
0.996 (inactive)

Param item: NC(=O)C[S+]([O-])C(c1ccccc1)c1ccccc1 (stereo not given) [Modafinil]
0.987 (inactive)

Please do the same for `CCOP(=S)(OCC)Oc1cc(C)nc(C(C)C)n1` as well.
1 (inactive)

One more molecule: C[C@]12CC[C@H](O)C[C@H]1CC[C@@H]1[C@@H]2CC[C@]2(C)[C@@H](C3=CC(=O)OC3)CC[C@]12O [Digitoxigenin]
1.01 (inactive)

Continue with O=C(NCNC(=O)NC1C(=O)NC(=O)N1CO)NC1C(=O)NC(=O)N1CO (stereo not given) [Imidurea]
1 (inactive)

Request: CCC(=O)O[C@@](Cc1ccccc1)(c1ccccc1)[C@@H](C)CN(C)C [Levopropoxyphene napsylate]
1 (inactive)

* * *

Tested on: Ruminococcus gnavus DSM 108212
Assay: fold change of 2-Phenylethylamine concentration vs plate DMSO controls (fold change (ratio)); higher = more amine produced, active = hit call of the paper (significant change in both replicates, either direction)
Conditions: 20 µM; incubation time: 27 h, anaerobic, 37 °C
Structures can show the parent of a compound that is named as a salt.
value_type: fold change of 2-Phenylethylamine concentration
Just the number, please, no unit after it.

# fold change of 2-Phenylethylamine concentration lookup, item CC(=O)O[C@H]1CC[C@@]2(C)C(=CC[C@@H]3[C@@H]2CC[C@]2(C)C(=O)CC[C@@H]32)C1 [Dehydroisoandosterone 3-acetate]
1.04

Item: CCCC1COC(Cn2cncn2)(c2ccc(Cl)cc2Cl)O1 (stereo unspecified)
1.17

Next molecule: `O=[N+]([O-])c1cc(C(F)(F)F)c(Cl)c([N+](=O)[O-])c1Nc1ncc(C(F)(F)F)cc1Cl`
0.826

Param item: S=C(NC1CCCCC1)N1CCC(c2cnc[nH]2)CC1 [Thioperamide maleate]
1.01

Please give the result for CC(C)CC(C)c1sccc1NC(=O)c1cn(C)nc1C(F)(F)F (stereo unspecified) too.
1.03

Also, `COP(=S)(OC)Oc1ccc(SC)c(C)c1` please.
1.12

Query O=c1[nH]c2ccccc2n1C1CCN(CCCC(c2ccc(F)cc2)c2ccc(F)cc2)CC1 [Pimozide] next
0.898

Item: COCC(C)N(C(=O)CCl)c1c(C)csc1C (stereo unspecified)
0.941

Let us now turn to `CCOc1cc(Oc2ccc(C(F)(F)F)cc2Cl)ccc1[N+](=O)[O-]`
1.05

Also need `CC(C)N(C(=O)COc1nnc(C(F)(F)F)s1)c1ccc(F)cc1` , thanks.
0.832

Similarly, CC1(C)C(C=C(Cl)Cl)C1C(=O)OC(C#N)c1cccc(Oc2ccccc2)c1 (mixture of isomers) ?
1
